# measurement.protocol: gradient 5% acetonitrile 3 min, to 50% in 2 min, to 85% in 15 min, held 3 min, 100 µL/min
# test.context: column: Zorbax Extend-C18 2.1 x 50 mm; eluents: water / acetonitrile, 0.1% formic acid
test.readout: RP-LC retention time (s)

Data request: Recall and state the measured RP-LC retention time for CSc1ccc(-c2nc3ncccn3c2Nc2c(C)cccc2C)cc1 .
Data returned: 864

Data request: Recall and state the measured RP-LC retention time for COc1ccc(C2CCCN2C(=O)Cn2nc(C(F)(F)F)cc2C)cc1 (stereo not drawn) .
Data returned: 953

Data request: Recall and state the measured RP-LC retention time for Cc1cccn2c(Nc3ccccc3)c(-c3ccc(N4CCOCC4)cc3)nc12 .
Data returned: 684

Data request: Recall and state the measured RP-LC retention time for CCCn1cc(S(=O)(=O)NCc2cccc(C)c2)c2cccnc21 .
Data returned: 943

Data request: Recall and state the measured RP-LC retention time for O=c1c2nc(-c3cccc(Cl)c3)cn2ccn1-c1cccc(F)c1 .
Data returned: 871

Data request: Recall and state the measured RP-LC retention time for Cc1ccc(NC(=O)NC2CCN(c3ccc(C)cc3)C2=O)cc1 (stereo not drawn) .
Data returned: 853

Data request: Recall and state the measured RP-LC retention time for CC(=O)Oc1cccc(C2C3=C(CC(C)(C)CC3=O)Nc3ccccc3N2C(C)=O)c1 (stereo not drawn) .
Data returned: 735

Data request: Recall and state the measured RP-LC retention time for CCN1C(=O)CCc2cc(NS(=O)(=O)c3cccc4cccnc34)ccc21 .
Data returned: 758

###

# measurement.protocol: gradient 5% acetonitrile 3 min, to 50% in 2 min, to 85% in 15 min, held 3 min, 100 µL/min
# test.context: column: Zorbax Extend-C18 2.1 x 50 mm; eluents: water / acetonitrile, 0.1% formic acid
test.readout: RP-LC retention time (s)

Data request: Recall and state the measured RP-LC retention time for COc1ccc(OC)c(NC(=O)N2CCC(C)(C(=O)NCc3ccc4c(c3)OCO4)CC2)c1 .
Data returned: 806

Data request: Recall and state the measured RP-LC retention time for Cn1cccc1C(=O)N1CCC2(CC1)NC(=O)N(Cc1cccc(Cl)c1)C2=O .
Data returned: 821

Data request: Recall and state the measured RP-LC retention time for O=C(COc1ccc(Cl)cc1)N1CCC2(C1)C(=O)Nc1ccccc12 (centres undefined) .
Data returned: 776

Data request: Recall and state the measured RP-LC retention time for Cc1ccc(Nc2c(-c3cc(Br)ccc3F)nc3cccc(C)n23)cc1 .
Data returned: 814

###

# measurement.protocol: gradient 5% acetonitrile 3 min, to 50% in 2 min, to 85% in 15 min, held 3 min, 100 µL/min
# test.context: column: Zorbax Extend-C18 2.1 x 50 mm; eluents: water / acetonitrile, 0.1% formic acid
test.readout: RP-LC retention time (s)

Data request: Recall and state the measured RP-LC retention time for COc1ccc(Cl)cc1NS(=O)(=O)c1cc(-c2[nH]ncc2C(=O)N(C)C)oc1C .
Data returned: 716

Data request: Recall and state the measured RP-LC retention time for CC(C)CNC(=O)N1CCCCC1c1nncn1-c1ccccc1 (centres undefined) .
Data returned: 683

Data request: Recall and state the measured RP-LC retention time for O=C(O)c1cccc(Nc2c(-c3ccc(F)cc3)nc3cnccn23)c1 .
Data returned: 702

Data request: Recall and state the measured RP-LC retention time for O=C(Nc1ccc2c(c1)OCCO2)C1CCN(C(=O)c2cccc(F)c2)CC1 .
Data returned: 697
